MEASUREMENT_TARGET: T1, HLA-A*0201/β2-microglobulin/NY-ESO peptide complex (human, biotinylated with E. coli biotin ligase at the added recognition sequence (biotinylated form used in the ELISA))
T1 construct: also called HLA/NY-ESO; HLA-A2/NY-ESO
MEASUREMENT_PROTOCOL: SPR (Biacore T200), scFv captured by anti-His antibody, HLA/NY-ESO as analyte, single cycle kinetics
PROPERTY_MEASURED: pKd
The scale used: pKd is minus the common logarithm of the concentration in molar units.

Looking up NYA-2047 (scFv) scFv: GQVQLVESGGGVVQPGRSLRLSCAASGFSIRSYDMHWVRQAPGKGLEWVATISYDGSQKYYADSVKGRFTISRDNSKNTLYLQMSSLRAEDTAVYHCARGSSGHYEAFDIWGQGTLVTVSSGGGGSGGGGSGGGGSQSVLTQPPSVSAAPGQKVTISCSGSSSNIGNWYVSWYQQLPGTAPKLLIYDNNKRPSGIPDRFSGSKSGTSATLGITGLQTGDEADYYCGTWDSSLSAPWVFGGGTKVTVLGAAAGAGGDYKDDDDKGAAAHHHHHH , I found its pKd recorded as 8.28
